target: Fuc(a1-2)Gal(b1-4)Glc; experiment: glycan array binding signal (z-score within array); higher = stronger binding; details: glycan notation: IUPAC condensed, linker removed
This is one part of a sample in which the strongest signals are shown more often than they occur.
Assign glycan array binding signal (z-score) to each entry below.
// no unit string in output, number only

Consider Eosinophil cationic protein (ECP) (Homo sapiens), P12724 (protein) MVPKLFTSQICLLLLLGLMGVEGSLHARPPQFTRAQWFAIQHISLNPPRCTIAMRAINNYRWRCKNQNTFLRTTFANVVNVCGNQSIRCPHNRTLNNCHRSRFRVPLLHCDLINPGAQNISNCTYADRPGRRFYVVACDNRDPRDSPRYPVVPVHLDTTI . Its measured glycan array binding signal (z-score) is -0.348

Data point: CCL1 (Coprinopsis cinerea) (protein) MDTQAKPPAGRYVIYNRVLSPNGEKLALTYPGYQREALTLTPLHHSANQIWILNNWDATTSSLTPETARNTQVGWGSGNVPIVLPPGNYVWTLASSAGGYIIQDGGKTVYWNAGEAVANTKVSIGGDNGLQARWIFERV ; glycan array binding signal (z-score) = -0.127

Measured glycan array binding signal (z-score) of SCA (Schizophyllum commune) (protein) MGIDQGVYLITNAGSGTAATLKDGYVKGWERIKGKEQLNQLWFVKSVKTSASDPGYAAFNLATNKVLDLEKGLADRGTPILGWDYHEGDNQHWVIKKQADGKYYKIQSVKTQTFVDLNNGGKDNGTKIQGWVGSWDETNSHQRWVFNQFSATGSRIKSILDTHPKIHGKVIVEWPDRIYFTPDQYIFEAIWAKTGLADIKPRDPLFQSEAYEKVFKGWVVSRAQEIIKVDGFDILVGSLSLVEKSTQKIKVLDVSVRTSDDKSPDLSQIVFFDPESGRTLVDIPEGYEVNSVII : -0.153

Item: HMGB1 (Homo sapiens), P09429 (protein) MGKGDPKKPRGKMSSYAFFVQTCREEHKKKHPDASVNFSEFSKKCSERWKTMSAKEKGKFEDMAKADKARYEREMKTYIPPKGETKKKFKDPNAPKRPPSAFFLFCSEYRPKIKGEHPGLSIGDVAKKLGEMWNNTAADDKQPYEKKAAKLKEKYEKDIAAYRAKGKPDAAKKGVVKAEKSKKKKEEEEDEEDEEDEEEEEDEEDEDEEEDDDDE | glycan array binding signal (z-score): -0.488

Entry TbCVNHOb (Tuber borchii) (protein) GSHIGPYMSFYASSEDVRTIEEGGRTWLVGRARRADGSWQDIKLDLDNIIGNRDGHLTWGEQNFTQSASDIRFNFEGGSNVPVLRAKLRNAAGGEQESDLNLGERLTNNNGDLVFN , glycan array binding signal (z-score) reported as 0.347

Short answer for SLLPI (Homo sapiens), Q8IXA5 (protein) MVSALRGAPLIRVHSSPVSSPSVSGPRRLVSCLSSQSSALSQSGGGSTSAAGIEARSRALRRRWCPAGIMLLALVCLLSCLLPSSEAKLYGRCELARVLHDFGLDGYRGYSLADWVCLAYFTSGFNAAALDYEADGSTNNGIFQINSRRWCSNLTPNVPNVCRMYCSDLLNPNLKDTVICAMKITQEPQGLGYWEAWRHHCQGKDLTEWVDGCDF : glycan array binding signal (z-score) was 0.145
